# protocol-text: Evaluation of saturation solubility
# Assay type: physicochemical
# condition-summary: thermodynamic from solid; DW (Deionized Water)
parameter-measured: solubility (mg/mL)
Kindly provide the numeric value in mg/mL only, without the unit symbol.

Quickly give me recorded solubility for CC(C)OC(=O)OCOP(=O)(CO[C@H](C)Cn1cnc2c(N)ncnc21)OCOC(=O)OC(C)C.O=C(O)/C=C/C(=O)O [TDF] 13.5

###

# protocol-text: Evaluation of saturation solubility
# Type: physicochemical
# condition-summary: aqueous buffer, thermodynamic from solid; pH 4.0
parameter-measured: solubility (mg/mL)
Give the value, in units of mg/mL, as a plain number.

Recall and state the measured solubility for `CC(C)OC(=O)OCOP(=O)(CO[C@H](C)Cn1cnc2c(N)ncnc21)OCOC(=O)OC(C)C.O=C(O)/C=C/C(=O)O` . 13.2

These entries and their values trace back to patent US9879038B2.
